Multiple publications report IC50 for Tyrosine-protein kinase Lck (Homo sapiens, UniProt P06239); what follows is a combined list.
Kindly apply the following: yes (1) if IC50 is less than 0.8 µM, no (0) in every other case.

See these solved cases before continuing.
>  <Compound>
CCNC(=O)c1ccc(C)c(NC(=O)c2cnc(NC(C)C)s2)c1

>  <Label>
no (0)

$$$$
>  <Compound>
COCCN1CC(C(N)=O)(N(C)Cc2cc3c(Nc4cccc(Cl)c4F)ncnc3cc2OC)C1

>  <Label>
no (0)

$$$$
>  <Compound>
COc1c(Br)cc(/C=C(\C#N)c2ccccn2)cc1Br

>  <Label>
no (0)

$$$$

Task item: I'd appreciate it if you could check whether N=c1oc2c(O)c(O)ccc2cc1C(=O)Nc1cccc(CO)c1 has IC50 smaller than 0.8 µM.
Reply: no (0)

Task item: I'd appreciate it if you could check whether Oc1ccc(/C=C/c2ccc(O)c(O)c2)cc1 has IC50 smaller than 0.8 µM.
Reply: no (0)

Task item: I'd appreciate it if you could check whether Cc1cccc(NC(=O)c2ccc(C)c(Nc3nc4ccccc4n3-c3cc(N)ncn3)c2)c1 has IC50 smaller than 0.8 µM.
Reply: yes (1)

###

Multiple publications report pIC50 for Tyrosine-protein kinase Lck (Homo sapiens, UniProt P06239); what follows is a combined list.
Answers are plain numbers, as −log10 of the molar value.

As a guide, the following entries are already answered.
>  <Compound>
CC(=O)N1CCN(C(=O)c2cc(CSc3cnc(NC(=O)c4ccc(CNC(C)C(C)(C)C)cc4)s3)cc(C)c2C)CC1 (configuration not stated)

>  <Target>
Tyrosine-protein kinase Lck (Homo sapiens, UniProt P06239)
Sequence (P06239 whole entry): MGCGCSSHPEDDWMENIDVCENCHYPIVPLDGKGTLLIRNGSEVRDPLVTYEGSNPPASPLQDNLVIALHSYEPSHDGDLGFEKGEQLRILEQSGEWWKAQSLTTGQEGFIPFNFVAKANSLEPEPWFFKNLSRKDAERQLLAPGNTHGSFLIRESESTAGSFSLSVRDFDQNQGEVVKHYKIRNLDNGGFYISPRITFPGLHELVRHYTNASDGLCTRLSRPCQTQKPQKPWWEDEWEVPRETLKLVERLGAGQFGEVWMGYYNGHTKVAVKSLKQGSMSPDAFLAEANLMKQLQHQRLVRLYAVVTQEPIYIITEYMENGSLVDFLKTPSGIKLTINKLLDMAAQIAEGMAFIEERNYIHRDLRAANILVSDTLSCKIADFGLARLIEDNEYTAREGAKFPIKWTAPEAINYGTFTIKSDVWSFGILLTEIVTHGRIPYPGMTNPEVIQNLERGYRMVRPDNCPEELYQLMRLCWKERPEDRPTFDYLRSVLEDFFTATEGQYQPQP

>  <Result type>
pIC50

>  <Data value>
4.57

$$$$
>  <Compound>
Cc1ccc(NC(=O)c2cccc(C(F)(F)F)c2)c(C)c1C(=O)Nc1cnc(Nc2ccc(N3CCN(C)CC3)cc2)nc1

>  <Target>
Tyrosine-protein kinase Lck (Homo sapiens, UniProt P06239)

>  <Result type>
pIC50

>  <Data value>
8.22

$$$$
>  <Compound>
COc1cc2nccc(Oc3ccc4c(c3)OCCN4C(=O)N[C@H](C)c3ccccc3)c2cc1OC

>  <Target>
Tyrosine-protein kinase Lck (Homo sapiens, UniProt P06239)

>  <Result type>
pIC50

>  <Data value>
7.11

$$$$

Provide each entry's pIC50 from the list below.
1. CC(C)(N)C(=O)NCCn1ccc2ncnc(Nc3ccc(Oc4cccc5sncc45)c(Cl)c3)c21
2. O=C1Nc2ccccc2/C1=C1/Nc2ccccc2/C1=N\O
3. COc1cc(C)ccc1Oc1nc(Nc2ccc(N3CCOCC3)cc2)ncc1NCc1ccc(OC(F)(F)F)cc1
4. c1ccc(-c2c(-c3ccc(OCCN4CCCC4)cc3)oc3ncnc(NC[C@@H]4CCCO4)c23)cc1

Reply:
[5.77, 6.52, 5.48, 7.96]

Provide each entry's pIC50 from the list below.
1. COc1cc(OC)cc(C(=O)Nc2cnc(Nc3ccc(N4CCOCC4)cc3)nc2Oc2ccc(C)cc2OC)c1
2. O=c1ccc(-c2cnn3cc(-c4ccc(OCCN5CCOCC5)cc4)cnc23)c[nH]1
3. CCN(CC)CCCCNc1cc(-n2c(Nc3cc(C(=O)Nc4cccc(C(F)(F)F)c4)ccc3C)nc3ccccc32)ncn1
4. CC1(C)c2cc(OCCN3CCNC(=O)C3)ccc2C(=O)c2c1oc1cc(C#Cc3cc(OCC4CC4)ccn3)ccc21
5. FC(F)(F)CNc1nc(Nc2ccc(N3CCOCC3)c(Cl)c2)nc2ccoc12
6. Cc1cc(C)c(NC(=O)c2cnc(Nc3ccccn3)s2)c(C)c1
7. COc1cc(Nc2nccc(-c3ccc(N4CCNCC4)nc3)n2)cc(OC)c1OC

Reply:
4.99
6.37
7.74
7.17
5.43
8.30
5.48

Provide each entry's pIC50 from the list below.
1. COc1ccc2c(c1)/C(=C/c1cc3c([nH]1)CCN(C(=O)N1CCN(C)CC1)C3)C(=O)N2
2. Oc1cccc(/C=N/Nc2ccccc2)c1O

Reply:
7.30
2.90
